All figures here come from patent US11578055B2.

Test: In Vitro Microsome Stability Assay (mouse)
Format: in vitro ADME
Conditions: mouse, 30 min, NADPH
Description: Potassium phosphate (423 μL of a 0.1 M solution) was added to 8-strip deep well tubes followed by human, mouse, rat, or monkey microsomes (25 μL of a 20 mg/mL solution). The tubes were then placed on ice and the test article (2 μL of a 0.25 mM solution in DMSO) was added. […] Liver microsome stability is assessed by the % remaining of compound at 30 min which is calculated using the following equation: [(AUCanalyteT=30/AUCIS)/(AUCanalyteT=0/AUCIS)]*100 […]
Endpoint Name: Liver Microsome Stability-% Left after 30 min w/ NADPH (%) Mouse
Only the number, expressed in %, is required.

Consider the following illustrative entries.
> print(dat)
                                   compound  value
1  C=C1CN(S(=O)(=O)c2ccc(N(C)C)cc2)CCCN(CC2CCCCC2)CCCN(S(=O)(=O)N2CC=C(C3=CCCCC3)CC2)C1   55.1
2  C[C@H]1CN(S(=O)(=O)c2ccc(N(C)C)cc2)CCCN(CC2CCCCC2)CCCN(S(=O)(=O)N2CCc3cc(Cl)ccc3C2)C1   49.6
3  C=C1CN(S(=O)(=O)c2ccc(N(C)C)cc2)CCCN(CC2CCCCC2)CCCN(S(=O)(=O)N2CCC(c3cccc(Cl)c3)CC2)C1   72.8
4  C=C1CN(S(=O)(=O)c2ccc(N(C)C)cc2)CCCN(CC2CCCCC2)CCCN(S(=O)(=O)N2CCCC(c3ccccc3)C2)C1 (stereo not shown)   12.6
5  C=C1CN(S(=O)(=O)c2ccc(N(C)C)cc2)CCCN(CC2CCCCC2)CCCN(S(=O)(=O)N2CCN(c3ccccc3)CC2)C1   1.85
6  CN(C)c1ccc(S(=O)(=O)N2CCCN(CC3CCCCC3)CCCN(S(=O)(=O)N3CCC(C)(C)CC3)CC3(CC3)C2)cc1    3.4

Next:
Lookup: Give Liver Microsome Stability-% Left after 30 min w/ NADPH (%) Mouse for the following compound: C=C1CN(S(=O)(=O)c2ccc(N(C)C)cc2)CCCN(CC2CCCCC2)CCCN(S(=O)(=O)N2CCc3cc(-c4ccccc4)ccc3C2)C1
Found: 85.2

* * *

experiment: In Vitro Microsome Stability Assay (mouse); type: in vitro ADME; conditions: mouse liver microsomes, 30 min w/ NADPH
Liver Microsome Stability-% Left after 30 min w/ NADPH (%) Mouse values for the molecules below.
Give your result as the value with the unit written after it.

Lookup: Give Liver Microsome Stability-% Left after 30 min w/ NADPH (%) Mouse for the following molecule: C[C@H]1CN(S(=O)(=O)c2ccc(N(C)C)cc2)CCCN(CC2=CCCC2)CCCN(S(=O)(=O)N2CCc3cc(Cl)ccc3C2)C1 [A142]
Found: 16%

Lookup: Give Liver Microsome Stability-% Left after 30 min w/ NADPH (%) Mouse for the following molecule: C[C@H]1CN(S(=O)(=O)c2ccc(N(C)C)cc2)CCCN(CC2CCCC2)CCCN(S(=O)(=O)N2CCc3cc(Cl)ccc3C2)C1 [A157]
Found: 23.3%

Lookup: Give Liver Microsome Stability-% Left after 30 min w/ NADPH (%) Mouse for the following molecule: C[C@H]1CN(S(=O)(=O)c2ccc(N(C)C)cc2)CCCN(CC2CCC2)CCCN(S(=O)(=O)N2CCc3cc(Cl)ccc3C2)C1 [A108]
Found: 0.62%

Lookup: Give Liver Microsome Stability-% Left after 30 min w/ NADPH (%) Mouse for the following molecule: CN(C)c1ccc(S(=O)(=O)N2CCCCN(S(=O)(=O)N3CCC(c4ccccc4)CC3)CCCN(CC3CCCCC3)CCC2)cc1 [B5]
Found: 0.24%
